Test system: SK-MEL-5
Test: NCI tumour cell line growth inhibition, 48 h
Calls of active or inactive are those of the source. No stated cut-off is given here; in the data, active = GI50 up to about 1.1 µM and inactive = higher.
Give your call using only these classes: active, inactive

# count of solved cases: 5
> print(dat)
                                   compound  classification
1  CCC1CN2CCc3cc(OC)c(OC)cc3C2CC1CC1c2cc(OC)c(OC)cc2CCN1C(=O)C1CCCN1C(=O)OCc1ccccc1 (stereo not drawn)        inactive
2  CC1(CCc2ccccc2)CC1(Br)Br (stereo not drawn)        inactive
3  O=C(N/C(=C\c1cccc([N+](=O)[O-])c1)c1nc2ccccc2[nH]1)c1ccccc1        inactive
4  CCOc1cc2c(cc1O)C(O)C[C@@H]1[C@@H]2CC[C@]2(C)[C@@H](O)CC[C@@H]12 (stereo partly drawn)          active
5  COc1ccc2c(c1[N+](=O)[O-])CC[C@@H]1[C@@H]2CC[C@]2(C)C(=O)CC[C@@H]12        inactive

I would be grateful if you could indicate the recorded call for COc1cc2c(c(OC)c1OC)-c1[nH]ncc1CC2 .
inactive

I would be grateful if you could indicate the recorded call for Nc1nnnn1CCO .
inactive

I would be grateful if you could indicate the recorded call for Cc1ccc(S(=O)(=O)NNC2Oc3cc4c(cc3C(c3ccccc3O)C2C)OCO4)cc1 (stereo not drawn) .
inactive

I would be grateful if you could indicate the recorded call for Cc1cc(NC[C@H](O)[C@H](O)[C@H](O)CO)c(Sc2cc(=O)[nH]c(=O)[nH]2)cc1C .
inactive

I would be grateful if you could indicate the recorded call for CC1(C2COC(=O)C2)SCCCS1 (stereo not drawn) .
inactive

I would be grateful if you could indicate the recorded call for CC1(C)CC(=O)C2=C(C1)NC1=C(C(=O)CC(C)(C)C1)C2c1ccc([N+](=O)[O-])cc1 .
inactive

* * *

System: SF-539
Assay: NCI tumour cell line growth inhibition, 48 h
The source made the active and inactive calls. Cut-off read from the data, not from the text of the source: active = GI50 up to about 1.1 µM and inactive = higher.
Listing of entries alongside the reported GI50.

> print(dat)
                                   compound       value.observed
1  N#CC1=C(N)Nc2nc3ccccc3n2C1c1ccccc1 (stereo not given)  > 100 µM (inactive)
2  COc1ccc(OC)c(NC(=O)C(=O)CC(=O)c2sc(-n3nc(-c4ccccc4)cc3-c3ccccc3)nc2C)c1  > 100 µM (inactive)
3  O=C(O)C(F)(OC(F)(F)C(F)(F)C(F)(F)F)C(F)(F)F (stereo not given)  > 100 µM (inactive)

Give recorded GI50. CCCCN(CCCC)CC(O)c1cc(-c2ccc(Cl)c(Cl)c2)nc2c(Cl)cc(Cl)cc12 (stereo not given)
> 100 µM (inactive)

Give recorded GI50. CCOC(=O)c1c(C)n(Cc2ccccc2)c2c1cc(O)c1[nH]c3c(c12)CCCC3
1.95 µM (inactive)

* * *

Test system: OVCAR-3
Assay: NCI tumour cell line growth inhibition, 48 h
Activity calls are given as the source filed them. Rule as the data show it: active = GI50 up to about 1.1 µM and inactive = higher.
measured-property: GI50

Examples with their reported GI50 follow.
> print(dat)
                                   molecule       value.observed
1  CC(=O)c1c(N=[N+]=[N-])c2cccc3c2n(c1=O)CCC3   4.21 µM (inactive)
2                       C[Si](C)(C)/C=C\CCO  > 100 µM (inactive)

Give recorded GI50. CC(=O)Nc1ccccc1-c1nc2ccccc2nc1-c1ccccc1
> 100 µM (inactive)

Give recorded GI50. CCCCCCCCCCCCCCCC(=O)OC1C(O)C(O)C(O)C(O)C12CO2 (centres undefined)
24.6 µM (inactive)

* * *

Listing of entries alongside the reported GI50.
Tested on: HCT-15

Examples with their reported GI50 follow.
> print(dat)
                                   compound  measured.property  value.observed
1  Cc1cc(NC[C@H](O)[C@H](O)[C@H](O)CO)c(Sc2cc(=O)[nH]c(=O)[nH]2)cc1C               GI50       > 62.5 µM
2  CCOC(=O)/C(=C/Nc1c(C)n(C)n(-c2ccccc2)c1=O)C(C)=O               GI50        > 100 µM
3       O=S(=O)(Cc1cnc(O)nc1O)Cc1cnc(O)nc1O               GI50        > 100 µM

Give recorded GI50. COC1=C(OC)C23CCc4ccc(OC)c(O)c4C2(CCN3)CC1=O (stereo not drawn)
> 100 µM

Give recorded GI50. NC(c1ccccc1)(C(F)(F)F)P1(=O)OC(=O)c2ccccc2O1 (stereo not drawn)
> 100 µM

Give recorded GI50. NC(CCOCCP(=O)(O)CCC1C=CC=CC1)C(=O)O (stereo not drawn)
> 100 µM

Give recorded GI50. COc1cc(/C=C2\C(=O)N(C(=O)Cc3ccccc3)N=C2C)cc(OC)c1OC
> 100 µM

Give recorded GI50. CCSc1nc(-c2ccc(OC)cc2)c(C#N)c(=O)n1C1OCC(OC(C)=O)C(OC(C)=O)C1OC(C)=O (stereo not drawn)
> 100 µM

Give recorded GI50. CSC(=N/N=C(\C)c1ccc(S(=O)(=O)N(C)c2ccccc2)cc1)SC
> 66.7 µM

* * *

Tested on: LXFL 529
Test: NCI tumour cell line growth inhibition, 48 h
Calls of active or inactive are those of the source. Cut-off read from the data, not from the text of the source: active = GI50 up to about 1.1 µM and inactive = higher.
measured-property: GI50

> print(dat)
                                   compound       value.observed
1   O=C(Cc1nc2ccccc2o1)C(=O)Nc1ccc(Cl)cc1Cl  > 100 µM (inactive)
2                  C=CCNC(=O)ON1C(=O)CCC1=O  > 100 µM (inactive)
3                        CC1(C)OB(O)OC1(C)C  > 100 µM (inactive)
4  Nc1ccc(C(=O)NN2C(=O)C(Cl)C2c2ccccc2)cc1 (stereo not given)  > 100 µM (inactive)
5  CC12CC3C(CC1SCC(=O)O2)C3(C)C (stereo not given)  > 100 µM (inactive)

Give recorded GI50. ClC1=C(Cl)C(Cl)(Cl)c2c3c(c4c(c21)C(Cl)(Cl)C(Cl)=C4Cl)C(Cl)(Cl)C(Cl)=C3Cl
> 100 µM (inactive)

Give recorded GI50. N#CC(C(=O)/C(=N\NC(N)=O)C(C#N)c1ccc(Cl)cc1)c1ccc(Cl)cc1 (stereo not given)
> 100 µM (inactive)

Give recorded GI50. CC(CC(=O)N1C(=O)C(C)(C)[C@@H](O)[C@H]1CC(C)C(Cl)(Cl)Cl)C(Cl)(Cl)Cl (stereo not given in full)
> 100 µM (inactive)

Give recorded GI50. COC1=CC(O)(CC(N)=O)c2ccccc2C1=O (stereo not given)
> 100 µM (inactive)

Give recorded GI50. CCOc1ccc(C2=NN(CC)C(=O)C(C3C(=O)N(c4ccccc4)N=C3C)C2)cc1 (stereo not given)
> 100 µM (inactive)

* * *

Test system: SF-268
Experiment: NCI tumour cell line growth inhibition, 48 h
Calls of active or inactive are those of the source. No stated cut-off is given here; in the data, active = GI50 up to about 1.1 µM and inactive = higher.
Listing of entries alongside the reported GI50.

Give recorded GI50. COC(=O)C1=C(N)C2=C(N)Oc3ccccc3C2CC1=C(C#N)C#N (configuration not stated)
29.7 µM (inactive)

Give recorded GI50. O=C(CSc1nc2ccc(I)cc2c(=O)n1Cc1ccccc1)NN1C(=O)c2ccccc2C1=O
8.85 µM (inactive)

Give recorded GI50. Cc1cc(NC[C@H](O)[C@H](O)[C@H](O)CO)c(Sc2cc(=O)[nH]c(=O)[nH]2)cc1C
> 62.5 µM (inactive)

Give recorded GI50. CC(C)(C)c1ccc2c(c1)C(=O)c1ccccc1C2=O
39.4 µM (inactive)

Give recorded GI50. CC1=NN(c2nc(N)nc(-c3sccc3N)n2)C(C)(C)C1
> 100 µM (inactive)

Give recorded GI50. CC1(CCc2ccccc2)CC1(Br)Br (configuration not stated)
41.4 µM (inactive)

Give recorded GI50. Cc1sc2ncnc(NCCc3ccccc3)c2c1C
21.8 µM (inactive)

Give recorded GI50. CCOc1ccccc1NC(=O)C(=O)CC(=O)c1sc(Nc2nnc(-c3ccc(Cl)c(Cl)c3)o2)nc1C
> 100 µM (inactive)

Give recorded GI50. O=C(Cn1c2ccc(Br)cc2c2nc3ccccc3nc21)NNC(=S)NC1CCCCC1
16.7 µM (inactive)

Give recorded GI50. O=c1[nH]c(=O)n(C/C=C/CO)nc1Br
> 100 µM (inactive)

Give recorded GI50. Cc1ccc(S(=O)(=O)NNC2Oc3cc4c(cc3C(c3ccccc3O)C2C)OCO4)cc1 (configuration not stated)
14 µM (inactive)

Give recorded GI50. Brc1ccc2[nH]cc(-c3csc(-c4ccccn4)n3)c2c1
30.6 µM (inactive)

Data provenance: ChEMBL document CHEMBL1201862
